tested on: neutrophil; assay: Neutrophil chemokine production assay; format: cell-based, human; conditions: 500.0 μM, 12 h
Measurement type: % MIP-1α (Vehicle + LPS = 100%)

{"columns": ["Compound", "Tgt", "Value observed"],
 "data": [
  ["O=C[C@H](O)[C@@H](O)[C@@H](O)CO [L-arabinose]", "neutrophil", "− (− = >90% Vehicle)"],
  ["CC(O)CCO (centres unmarked) [butanediol, 1,3-butanediol]", "neutrophil", "− (− = >90% Vehicle)"],
  ["CCC(=O)O [propionate]", "neutrophil", "+++ (+++ = <50% Vehicle)"],
  ["CCCC(=O)O [butyrate]", "neutrophil", "+++ (+++ = <50% Vehicle)"]
]}
